Answer each item with its documented solubility.
# ASSAY PROCEDURE: Aqueous solubility
# Type: physicochemical
# CONDITION: aqueous solution, pH 1.2, simulated gastric fluid; read-out: aqueous solubility at pH 1.2

Memo: O=C(Nc1ccc(OC(F)(F)F)cc1)N1CCC(F)(c2ncc([C@H](O)CO)cc2Cl)CC1 [Compound C1] , reported solubility: > 50 µM

Sure, the documented solubility for O=C(Nc1ccc(S(=O)(=O)C(F)(F)F)cc1)N1CCC(F)(c2ncc([C@H](O)CO)cc2Cl)CC1 [Compound H1] is > 50 µM

The value of solubility measured for the compound CCOC(=O)c1cnc(C2=CCN(C(=O)Nc3ccc(C(F)(F)F)cc3)CC2)c(Cl)c1 [Compound F2] turned out to be 1 µM

Notebook: O=C(Nc1ccc(OC(F)(F)F)cc1)N1CC=C(c2ncc([C@H](O)CO)cc2Cl)CC1 [Compound E2] , solubility read as > 50 µM

// N#CCc1cnc(C2=CCN(C(=O)Nc3ccc(C(F)(F)F)cc3)CC2)c(Cl)c1 [Compound E6] : solubility value = 27.2 µM

// field: solubility; key: O=C(Nc1ccc(C(F)(F)F)cc1)N1CCC(F)(c2ncc([C@H](O)CO)cc2Cl)CC1 [Compound N1] ; value = > 50 µM

Measured solubility of CC(O)c1cnc(C2=CCN(C(=O)Nc3ccc(C(F)(F)F)cc3)CC2)c(Cl)c1 (centres unmarked) [Compound G2] : > 50 µM

Reported solubility of O=C(Nc1ccc(C(F)(F)F)c(F)c1)N1CCC(F)(c2ncc([C@H](O)CO)cc2F)CC1 [Compound Y3] : > 50 µM

Reported solubility ( O=C(Nc1ccc(C(F)(F)F)cc1)N1CC=C(c2ncccc2Cl)CC1 [Compound 200] ) = < 0.1 µM

Entry under test: O=C(Nc1ccc(C(F)(F)F)c(Cl)c1)N1CC=C(c2ncc([C@H](O)CO)cc2F)CC1 [Compound U3] . Its solubility was > 50 µM

Value of measured solubility for the entry O=C(Nc1ccc(C(F)(F)F)cc1)N1CC=C(c2ncc(CO)cc2Cl)CC1 [Compound J2] : > 50 µM

* * *

Kindly state IC50 for each of the entries shown.
# TARGET DESC: human TRPV1 (Homo sapiens, UniProt Q8NER1)
# Construct: using primers designed surrounding the complete hTRPV1 open reading frame; expressed in transfected cells; host or cells: CHO-K1 cells stably transfected with pcDNA3.1(-)-hVR1 plasmid
# Sequence (Q8NER1 whole entry): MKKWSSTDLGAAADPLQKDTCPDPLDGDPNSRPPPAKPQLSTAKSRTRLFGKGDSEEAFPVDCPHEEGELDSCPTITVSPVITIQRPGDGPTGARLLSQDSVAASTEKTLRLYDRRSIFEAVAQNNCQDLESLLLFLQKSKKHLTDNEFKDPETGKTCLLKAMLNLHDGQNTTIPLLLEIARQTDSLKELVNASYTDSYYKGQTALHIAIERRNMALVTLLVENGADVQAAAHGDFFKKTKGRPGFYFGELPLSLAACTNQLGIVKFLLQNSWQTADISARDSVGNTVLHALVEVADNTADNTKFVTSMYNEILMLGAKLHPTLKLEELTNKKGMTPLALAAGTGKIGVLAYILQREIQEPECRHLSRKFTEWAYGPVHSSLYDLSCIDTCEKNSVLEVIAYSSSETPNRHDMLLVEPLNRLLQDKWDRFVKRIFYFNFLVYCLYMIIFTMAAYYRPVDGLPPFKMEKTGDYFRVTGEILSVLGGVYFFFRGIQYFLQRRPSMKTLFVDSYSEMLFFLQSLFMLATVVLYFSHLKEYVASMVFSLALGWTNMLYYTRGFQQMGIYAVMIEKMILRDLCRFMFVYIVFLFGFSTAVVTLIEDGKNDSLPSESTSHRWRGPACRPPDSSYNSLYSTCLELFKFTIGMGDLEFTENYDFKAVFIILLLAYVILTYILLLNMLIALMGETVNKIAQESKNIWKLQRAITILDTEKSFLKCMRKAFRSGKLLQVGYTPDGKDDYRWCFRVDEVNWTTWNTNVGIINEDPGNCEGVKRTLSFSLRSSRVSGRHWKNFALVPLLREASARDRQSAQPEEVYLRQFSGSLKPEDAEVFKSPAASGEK
# ASSAY PROCEDURE: Capsaicin-based assay, Protocol 2 (TRPV1/CHO cells, Fluo-4, FLIPR)
# Format: cell-based
# CONDITION: capsaicin 100 nM final, mean ± SEM, number of trials in parentheses, read-out: TRPV1 IC50 Potency, Human Capsaicin CHO (hCAP-CHO)
A number alone suffices; assume nM.

Lookup result for `CC1(c2ncc([C@H](O)CO)cc2F)CCN(C(=O)Nc2ccc(C(F)(F)F)c(Cl)c2)CC1` ; measured IC50: 14.3

For this molecule ( `O=C(Nc1nc2ccc(F)cc2s1)N1CC=C(c2ncc([C@H](O)CO)cc2F)CC1` ), measured IC50 is 439

Recorded result, `CC(C)(C)c1ccc(NC(=O)N2CC=C(c3ncc([C@H](O)CO)cc3Cl)CC2)cc1` , IC50: 33.8

// field: IC50; key: `CCOc1cc(NC(=O)N2CC=C(c3ncc(CO)cc3Cl)CC2)ccc1C(F)(F)F` ; value = 161

Sure, the documented IC50 for `O=C(Nc1nc2ccc(Cl)cc2[nH]1)N1CCC(F)(c2ncc([C@H](O)CO)cc2F)CC1` is 3280

The molecule listed as `O=C(Nc1ccc(S(=O)(=O)C(F)(F)F)cc1)N1CCC(F)(c2ncc([C@H](O)CO)cc2Cl)CC1` has a reported IC50 of 31.7

Data point: `CN(C(=O)N1CC=C(c2ncc([C@H](O)CO)cc2Cl)CC1)c1ccc(C(F)(F)F)cc1` ; IC50 = 7030

Form field IC50, entry `O=C(Nc1ccc(C(F)(F)F)cc1)N1CC=C(c2ncc([C@H](O)CO)cc2Cl)CC1` : 75.8

* * *

Please respond with reported log10 of IC50 for every item in the list.
# TARGET DESC: human TRPV1 (Homo sapiens, UniProt Q8NER1)
# Construct: using primers designed surrounding the complete hTRPV1 open reading frame; expressed in transfected cells; host or cells: CHO-K1 cells stably transfected with pcDNA3.1(-)-hVR1 plasmid
# ASSAY PROCEDURE: pH-based assay, Protocol 2 (TRPV1/CHO cells, Fura-2 AM, FDSS-3000, pH 5.0-5.1)
# Assay type: cell-based
# CONDITION: H2SO4 agonist, mean ± SEM, number of trials in parentheses, read-out: TRPV1 IC50 Potency, Human pH CHO (hpH-CHO)
Form field - Quantity: IC50; Unit: nM; Scale: log10

// log10 of IC50 value for `O=C(Nc1ccc(Cl)c(C(F)(F)F)c1)N1CCN(c2ncc([C@H](O)CO)cc2Cl)CC1` : 1.17

Lookup result for CC(C)(C)c1ccc(NC(=O)N2CC=C(c3ncc([C@H](O)CO)cc3F)CC2)cc1 [Compound D1] ; measured log10 of IC50: -0.05

Kindly note the recorded log10 of IC50 for `CCCOc1cc(NC(=O)N2CC=C(c3ncc(CO)cc3Cl)CC2)ccc1C(F)(F)F` , which is 1.27

The compound listed as `O=C(Nc1ccc(Cl)c(C(F)(F)F)c1)N1CC=C(c2ncc([C@H](O)CO)cc2F)CC1` has a reported log10 of IC50 of 1.67

log10 of IC50 measured on `O=C(Nc1ccc(OC(F)(F)F)cc1)N1CC=C(c2ncc(CO)cc2Cl)CC1` = 1.93

Summary for this compound, `O=C(Nc1ccc(C(F)(F)F)c(Cl)c1)N1CC=C(c2ncc([C@@H](O)CO)cc2Cl)CC1` : log10 of IC50 is 1.48

Item: `Cc1cc(NC(=O)N2CC=C(c3ncc([C@H](O)CO)cc3F)CC2)ccc1OC(F)(F)F` | log10 of IC50: 0.96

Quick note, log10 of IC50 for `CCOc1cc(NC(=O)N2CC=C(c3ncc(CO)cc3Cl)CC2)ccc1C(F)(F)F` landed at 1.44

Just so you know, measured log10 of IC50 for `O=C(Nc1ccc(OC(F)(F)F)cc1)N1CC=C(c2ncc([C@H](O)CO)cc2F)CC1` came out at 1.35

# log10 of IC50 (compound: `O=C(Nc1ccc(OC(F)(F)F)cc1)N1CCN(c2ncc([C@H](O)CO)cc2Cl)CC1` ) is 0.76

Reported log10 of IC50 of `Cc1cc(NC(=O)N2CCC(F)(c3ncc([C@@H](O)CO)cc3Cl)CC2)ccc1OC(F)(F)F` : 1.00

For record `O=C(Nc1ccc(C(F)(F)F)c(F)c1)N1CCC(F)(c2ncc([C@@H](O)CO)cc2F)CC1` the listed log10 of IC50 is 0.95

Measured log10 of IC50, `CC(C)(C)c1ccc(NC(=O)N2CC=C(c3ncc([C@H](O)CO)cc3Cl)CC2)cc1` : 0.04

Lab book: log10 of IC50 of `CC(C)(O)c1cnc(C2=CCN(C(=O)Nc3ccc(C(F)(F)F)c(F)c3)CC2)c(Cl)c1` noted as 2.15

// log10 of IC50 lookup, compound = `O=C(Nc1nc2ccc(F)cc2s1)N1CCC(F)(c2ncccc2Cl)CC1` , result: 3.16

The value of log10 of IC50 measured for the compound `O=C(Nc1ccc(C(F)(F)F)c(F)c1)N1CC=C(c2ncc([C@H](O)CO)cc2Cl)CC1` turned out to be 1.21

* * *

# TARGET DESC: human TRPV1 (Homo sapiens, UniProt Q8NER1)
# Construct: using primers designed surrounding the complete hTRPV1 open reading frame; expressed in transfected cells; host or cells: CHO-K1 cells stably transfected with pcDNA3.1(-)-hVR1 plasmid
# ASSAY PROCEDURE: pH-based assay, Protocol 2 (TRPV1/CHO cells, Fura-2 AM, FDSS-3000, pH 5.0-5.1)
# Format: cell-based
# CONDITION: H2SO4 agonist, mean ± SEM, number of trials in parentheses, read-out: TRPV1 IC50 Potency, Human pH CHO (hpH-CHO)
What IC50 was measured for each of the following?
Kindly provide the numeric value in nM only, without the unit symbol.

GET /values?item= `O=C(Nc1ccc(C(F)(F)F)cc1)N1CC=C(c2ncc([C@H](O)CO)cc2Cl)CC1` &system= human TRPV1 (Homo sapiens, UniProt Q8NER1) returns IC50: 11.6

Recorded IC50 for `O=C(Nc1ccc(C(F)(F)F)cc1)N1CC=C(c2ncc([C@H](O)CO)cc2F)CC1` on human TRPV1 (Homo sapiens, UniProt Q8NER1) was 14.7

Let me check: `CN(C)c1ccc(NC(=O)N2CC=C(c3ncc(CO)cc3Cl)CC2)cc1C(F)(F)F` , system human TRPV1 (Homo sapiens, UniProt Q8NER1), measured IC50 is 18.8

Measured on human TRPV1 (Homo sapiens, UniProt Q8NER1), O=C(Nc1ccc(OC(F)(F)F)cc1)N1CC=C(c2ncc([C@H](O)CO)cc2Cl)CC1 [Compound E2] has a documented IC50 of 20.3

# value of IC50, human TRPV1 (Homo sapiens, UniProt Q8NER1), item `O=C(Nc1ccc(C(F)(F)F)c(F)c1)N1CC=C(c2ncc([C@@H](O)CO)cc2Cl)CC1` = 71.2

Reported human TRPV1 (Homo sapiens, UniProt Q8NER1) IC50 for item `O=C(Nc1nc2ccc(F)cc2s1)N1CCC(F)(c2ncc([C@H](O)CO)cc2Cl)CC1` was 27.5
